- EXPERIMENTAL TARGET: Rho-associated protein kinase 1 (Homo sapiens);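 also: values are mean percent inhibition of ROCK1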
- MEASUREMENT CONTEXT: at 0.1 µM
Reported inhibition values follow for various compounds
QUANTITY: inhibition (%)

>>> print(df.to_string())
                               entry_smiles                       experimental_target    quantity  value
0         COc1ccc(Nc2ncc(-c3ccccc3)o2)cc1OC  Rho-associated protein kinase 1 (Homo sapiens)  inhibition  -0.21
1  COc1ccccc1-c1cc(/C=C2\C(=O)Nc3ncc(Br)cc32)cc(Br)c1O  Rho-associated protein kinase 1 (Homo sapiens)  inhibition   0.21
2  CS(=O)(=O)Nc1ccc(-c2ccc3c(NC(=O)C4CC4)n[nH]c3c2)cc1  Rho-associated protein kinase 1 (Homo sapiens)  inhibition   0.87
3       COc1cc(Nc2ncc(-c3ccccc3)o2)cc(OC)c1  Rho-associated protein kinase 1 (Homo sapiens)  inhibition    2.5
4  CNC(=O)c1sc(-n2cnc3cc(OC)c(OC)cc32)cc1OCc1ccccc1C(F)(F)F  Rho-associated protein kinase 1 (Homo sapiens)  inhibition   0.61
